# Measurement Protocol: yeast display, Sf9 membrane polyspecificity reagent, FACS + sequencing; frameworks hold sequencing errors
Experimental Endpoint: polyreactivity (PSR sort gate)

Residues | Experimental Endpoint | Measurement
QVQLVESGGVLVQAGGSLRLSCAASGSTFYFNTMGWYRQAPGKERELVAAITATGASTYYADSVKGRFTISRDIAKNTVYLQMNSLKPEDTAVYYCNVRLRIRSGYWGQGTQVTVSS | polyreactivity (PSR sort gate) | high polyreactivity
QVQLVESGGGLVQAGGSLRLSCAASGSTFVPNAMGWYRQAPGKERELVAALTFSGGTTYYADSVKGRFTISRDNAKNTVYLQMNSLKPEGTAVYYCAADYFSNLWWSGHAWRYYYWGQGTQVTVSS | polyreactivity (PSR sort gate) | low polyreactivity
QVQLQESGGGLVQAVGSLRLSCAASGNISDYYDMGWYRQAPGKERKFVAGIDFGAITNYADSVKGRFTISRDNAKNTEYLQMSSLKPEDTAVYYCAAGVYDWYAYDYWGQGTQVTVSS | polyreactivity (PSR sort gate) | high polyreactivity
QVQLVESGGALVQAGGSLRLSCAASGYIFPGNAMGWYRQAPGKEREVVAGITSSGTSTYYADSVKGRFTISRDNAKNTVYLQMNSLKQEDTAVYYCAADALWGTGSGFDYWGQGTQVTVSS | polyreactivity (PSR sort gate) | low polyreactivity
QVKLVESGGGLVQAGGSLRLSCAASGSIFYTYAMGWYRPAPGKERELVAAISSGGSTDYADSVKGRFTISRDNAKNTVYLQMNSLKPEDTAVYYCAAVAVELASEYDYWGQGTQVTVSS | polyreactivity (PSR sort gate) | low polyreactivity
QVQLVESGGGLVQAGGSLRLSCAASGSIFRSYAMGWYRQAPGKERELVASITRSSGSTYYADSVKGRFTISRDNAKNTVYLQMNSLKPEDTAVYYCNAVVSKSRRFRVDYWGQGTQVTVSS | polyreactivity (PSR sort gate) | high polyreactivity
QVQLVESGGRLVQAGVSLRLSCAAGGRTFGINAMGWYRQAPGKERELVARIRKTVGSTYYADSVKGRFTISRDNAKNTVYLQMNSLKPEDTAVYYCNADYDAYPRYIRYGYWGQGTQVTVSS | polyreactivity (PSR sort gate) | high polyreactivity
QVQLVESGGGLVQAGGSLRLSCAASGFTFYRYAMGWYRQAPGQEREVVAAIRKSGGSTYYADSVKGRFTISRDNAKTTVYLQMNSLKPEDTAVYYCAKRYATDGFGYWGQGTQVTVSS | polyreactivity (PSR sort gate) | high polyreactivity
QVQLVDSGGGLVQAGGSLRLSCAASGFIFPVYTMGWYRQAPGKERELVAAITQIGGSTQYADSVKGRFTISRDNAKNTVYLQMNSLKPEDTAVYYCAVDYDSYWYGTYVNEYVYWGQGTQVTVSS | polyreactivity (PSR sort gate) | low polyreactivity
QVQLVESGGGLVQAGGSLRLSCAASGSTFSYNAMGWYRQAPGKERELVAAISWSGGSTYYADSVKGRFTISRDNAKNTVYLQMNSLKPEDTAVYYCASDSPYGYYEGDYWGQGTQVTVSS | polyreactivity (PSR sort gate) | low polyreactivity
QVQLVESGGGLVQAGGSLRLSCAASGFIFSYYAKGWYRQAPGKERELVAAIDGSGGSTYYADSVKGRFTISRDNAKNTVYLQMNSLKPVDTAVYYCNTLIFIQGLGYDYWGQGTQVTVSS | polyreactivity (PSR sort gate) | high polyreactivity
QVQLVESGGGLVQAGGSLRLSCAASGGIFFSYAMGWYRQAPGKERELVAAIRTNGGTTYYADSVKGRFTISRDNAKNTVYLQMNSLKPEDTAVYYCAALPGGYYDRGEYDYWGQGTQVTVSS | polyreactivity (PSR sort gate) | low polyreactivity
QVQLVESGGGLVQAGCSLRLSCAASGRTFGVYAMGWYRQAPGKERELVAGIRWRGGSTYYADSVKGRFTISRDNAKNTVYLQMNSLKPEDTAVYYCAADVYLVKYDYWGQGTQVTVSS | polyreactivity (PSR sort gate) | low polyreactivity
QVQLVESGGGLVQAGGSLRLSCAASGIIFSDYAMGWYRQAPGKERELVAAITGGGSTYYADSVKGRFTISRDNAKNTVYLQMNRLKPEDTAVYYCNADWARLLIRSTEFDYWGQGTQVTVSS | polyreactivity (PSR sort gate) | low polyreactivity
QVQLVESGGGLVQAGGSLRLSCAASGSTFVFYAMGWSREAPGKERELVAAITISGDITYYADSVKGRFTISRDNAKNTVYLQMNSLKPEDTAVYYWAVDGPIPDLHEYWGQGTQVTVSS | polyreactivity (PSR sort gate) | low polyreactivity
QVQLVESGGGLVQAGGSLRLSCAASGFIFYKYAMGWYRQAPGKERELVAAISRSGSTYYADSVKGRFTISRDNAKNTVYLQMNSLKPDDTAVYYCNALTYFKRSEYYWGQGTQVTVSS | polyreactivity (PSR sort gate) | high polyreactivity
QVQLVESGGGLVQAGGSLRLSCAASGSTSGSYGMGWYRQAPGKERELVAAIRISGDSTYYADSVKGRFTISRDNAKNTVYLQMNSLKPEDTAVYYCAAEAFFWYYGWYDYWGQGTQVTVSS | polyreactivity (PSR sort gate) | high polyreactivity
QVQLVDSGGGLVQAGGSLRLSCAASGYTFEAYAMGWYRQAPGKERELVAAINYSGGSTYADSVKGRFTISRDNAKNTVYLQMNSLKPEDTAVYYCATRLYGYWPYGFDYWGQGTQVTVSS | polyreactivity (PSR sort gate) | low polyreactivity
QVQLVESGGGLVQAGGSLRLSCAASGRIFSHDVMGWYRQAPGKERELVAAISSSGGSTYYADSVKGRFTISRDNAKNTVYLQMNSLKPEDTAVYYCAADQWASGTDDYWGQGTEVTVSS | polyreactivity (PSR sort gate) | low polyreactivity
QVQLVESGGGLVQAGGSLRLSCAASGPTYKYNAMGWYRQAPGKEREMVAAISSTGSTNYADSVKGRFTISRDNAKNTVYLQMNSLKPEDTAVYYCAASFYFVQWGWYYYWGQGTQVTVSS | polyreactivity (PSR sort gate) | low polyreactivity
QVQLEESVGGLVQAGVSLRLSCAASGRFFYFYAMGWYRQAPAKERELVASISSGGITIYADSVKGRFTISRDNSKYTVYLQMYSLKREDTAVYYCNAGYASGKYSGVYLYGYLGQGTQVTVSS | polyreactivity (PSR sort gate) | low polyreactivity

###

# Measurement Protocol: yeast display, Sf9 membrane polyspecificity reagent, FACS + sequencing; frameworks hold sequencing errors

Residues | polyreactivity (PSR sort gate)
QVQLVESGGGLVQAGGSLRLSCAASGSIFGFNAMGWYRQAPGKERELVAAISGRGTGTYYADSVKGRFTISRDNAKNTVYLQMNSLKPEDTAVYYCYTYYYWGQGTQVTVSS | high polyreactivity
QVHLVESGGGLVQAGGSLRLSCAASGITFEGYAMGWYRQAPGKERELVAAIRSSGTSTYYADSVKGRFTISRDNAKNTVYLQMNSLKPEDTAVYYCNRARSSSRYDYWGQGTQVTVSS | low polyreactivity
QVQLVESGGGLVQAGGSLRLSCAASGSIFGTYAMGWYRQAPGKERELVARISGGGSTYYADSVKGRFTISRDNAKNTVYLQMNSLKPEDTAVYYCNVRKWAYWSHAIIYNYWGQGTQVTVSS | high polyreactivity
QVQLVESGGGLVQAGGSLSLSCAASGRIFRVYAMGWYRQAPGKERELVAAISSRGGRTYYADSVKGRFTISRDNAKNTVYLQMNSLKPEDTAVYYCAADGRSSSRATSRYDYWGQGTQVTVSS | high polyreactivity
QVQLVESGGGLVQAGGSLRLSCAASGITFTRNAMGWYRQAPGKERELVATISGSGGGTYYADSVKGRFTISRDNAKNTVYLQMNSLKPEDTAVYYCNARRWYYWQGTARYDYWGQGTQVTVSS | low polyreactivity
QVQLVESGGGLVQAGGSLRLSCAASGRIFPYNAMGWYRHAPGKERELVAAITWSGGRTYYADSVKGRFTISRDNAKNTVYLQMNSLKPEDTAVYYCAASYRGRTNDYWGQGTQVTVSS | high polyreactivity
QVQLVESGGGLVQAGGSLRLSCAASGFTFRWYDMGWYRQAPGKERELVAVISRSGGRTYYADSVKGRFTISRDNAKNTVYLQMNSLKPEDTAVYYCAADWWGYDGRYDYWGQGTQVTVSS | high polyreactivity
QVQLVESGGGLVQAGGSLRLSCAASGSIFTPYAMGWYRQAPGKERELVAAISDSVGSTYYADSVKGRFTISRDNAKNTVYLQMNSLKPEDTAVYYCAAEYWVYDSYWFDYDYWGQGTQVTVSS | high polyreactivity
QVQLVESGGGLVQAGGSLRLSCAASGSIFTPNVMGWYRQAPGKERELVAAISQSGGSTFYADSVKGRFTISRDNAKNNVYLQMNSLKPEDTAVYYCAADPFYYFPSPFDYWGQGTQVTVSS | low polyreactivity
QVQHVESVGGLVQAGGSLRLICAASGGTIDTYAIGWYRQAPGKERELVAGIDWSGGSTYYADSVKGRFTISRDNSKNTVYLQMNSLKPEDTAVYYCAADYYYPSQMDYWGQGTQVTVSS | low polyreactivity
QVQLVESGGGLVQAGGSLRLSCAASGITFGSYAMGWYRQAPGKERELVATISKSGGSTYYADSVKGRFTISRDNEKNTVYLQMNSLKPEDTAVYYCARRYVAKRMDFWGQGTQVTVSS | high polyreactivity
